Data provenance is PubChem BioAssay (Tox21).

Assay procedure: qHTS assay to identify small molecule antagonists of the glucocorticoid receptor (GR) signaling pathway - cell viability counter screen (AID 720693); note: nearly all actives have a fitted effect of over 55% in size
Measurement parameters: GR-bla HeLa viability, CellTiter-Glo luminescence, 18 h, with 5 nM dexamethasone present; series mostly up to 58.5 µM
Inconclusive results are not listed. Active and inactive are the calls of the source. Calls come from the whole dose curve; as a rule, active = well fitted cell-killing curve with a large enough effect in the repeat runs; inconclusive = weak or mixed curves, or effect the other way; inactive = no such curve, though single readings can be large or run the other way.
Possible outcomes: yes for active, no for inactive

In [3]: df
Out[3]:
                                   molecule  classification
0  O=[N+]([O-])c1cc([N+](=O)[O-])c2ccc(S(=O)(=O)O)cc2c1O              no
1  Cc1cc(CCN2CCN(c3nsc4ccccc34)CC2)cc2c1NC(=O)CC2(C)C             yes
2  CC(C)c1ccc2c(c1)CC[C@H]1[C@](C)(CN)CCC[C@]21C             yes
3                  O=CC=C(c1ccccc1)c1ccccc1              no
4        CC1=NC(C)OC1C (stereo unspecified)              no
5             N#CSc1ccc(N)c([N+](=O)[O-])c1             yes
